Tested on: SF-295
Test: SRB assay, inhibition of cancer cell proliferation, SF-295
Format: cell-based
Conditions: Homo sapiens; SF-295 cell line; SRB assay; Chou Median Effective Dose equation; read-out: IC50
Experimental: The inhibition of cell proliferation was measured in the indicated cancer cell lines using the sulforhodamine B (SRB) assay as described by Monks et al., 1991, J. Natl. Can. Inst. 83:757-766. The SRB assay is used to screen for anti-cancer drugs. […] The table provides the dosage of each compound (in mM) which inhibited fifty percent (IC50) or ninety percent (IC90) of proliferation when calculated using the Chou Analysis' Median Effective Dose equation.
measure: pIC50
The quantity pIC50 is defined as the negative base-10 logarithm of the molar concentration.

molecule CCCC(=O)OCOC(=O)C=Cc1ccccc1 [COMB, Cinnamoyloxymethyl Butyrate] , pIC50 observed: 3.71

----------
test system: NCI-H23; assay: SRB assay, inhibition of cancer cell proliferation, NCI-H23; type: cell-based; settings: Homo sapiens; NCI-H23 cell line; SRB assay; Chou Median Effective Dose equation; read-out: IC50
pIC50: −log10 of the molar value.
measure: pIC50

a. CC(=Cc1ccccc1)C(=O)O [MeCA, α-methylcinnamic acid, reference compound]
b. CCCC(=O)OCOC(=O)C=Cc1ccccc1 [COMB, Cinnamoyloxymethyl Butyrate]
Please indicate which has the smaller reported pIC50: a , or b . Please respond with the label that marks your chosen entry. a
(a: 2.49, b: 3.74)

----------
test system: PC-3; experiment: SRB assay, inhibition of cancer cell proliferation, PC-3; type: cell-based, human; conditions: Homo sapiens, PC-3
measure: IC50

The value of IC50 measured for the molecule CC(Cc1ccccc1)C(=O)O (stereo not shown) [MePPA, 2-methyl-3-phenylpropionic acid, reference compound] turned out to be > 4 mM

----------
System: MCF7
Assay: SRB assay, inhibition of cancer cell proliferation, MCF7
Assay type: cell-based, human
Details: Homo sapiens; MCF7 cell line; SRB assay; Chou Median Effective Dose equation; read-out: IC50
Description: Human promyelocytic leukemia cells (HL-60), human pancreatic carcinoma cells (PaCa-2) and human breast adenocarcinoma cells, pleural effusion cells (MCF-7) can be cultured as follows. […] Viability can be determined by trypan blue exclusion. […] The inhibition of cell proliferation was measured in the indicated cancer cell lines using the sulforhodamine B (SRB) assay as described by Monks et al., 1991, J. Natl. Can. […]
measure: IC50 (µM)
Express your answer in µM, writing the number without its unit.

Consider CCCC(=O)OCOC(=O)C=Cc1ccccc1 [COMB, Cinnamoyloxymethyl Butyrate] . Its measured IC50 is 196
